Tested on: MS2 coat protein
Experiment: apparent KD of MS2 coat protein; designed switch direction (-1 OFF switch, 1 ON switch): 1; higher = weaker reporter binding
Details: input ligand: microRNA oligo, concentration not stated
METRIC: apparent KD of MS2 coat protein

RECORD SEQUENCE	TARGET DESC	METRIC	MEASURED
GUAGCAUACCGAGGAUAUUCAUAUAAUAUUACAUGAGGAUCACCCAUGUAUAGGCGAAAGCCUUGGGAGAAGGCGGAAUGCUAC [Xeonanis - 20 Mod61] (Eterna round: R96, puzzle: Same State NG 2)	MS2 coat protein	apparent KD of MS2 coat protein	24.9 nM
GGGAGAGGUACAGGAUAUGGUGAGGAUCACCCACUAGAAGGGUGCACAUGUGAAUCGGACAUGAGGAUCACCCAUGUUGGGCGU (Eterna round: R96, puzzle: Same State NG 1)	MS2 coat protein	apparent KD of MS2 coat protein	265 nM
CGUAGGCCUCUCAACAUGAGGAUCACCCAUGUACGUGAAACGUAGGAUAUCACACAACUAAUGUGUGAGAAGGGCGCGCCGGAG [Eternabot solution 25] (Eterna round: R96, puzzle: Same State NG 3)	MS2 coat protein	apparent KD of MS2 coat protein	91.4 nM
